The reported numbers originate from patent US20240092919A1.

- system.name: Cynomolgus T cell receptor on cynomolgus primary T cells (cynomolgus monkey)
- method: cell-based or functional assay
The following binders are shown together with reported EC50 (M), T cell mediated MOLM-13 cell killing, cynomolgus primary T cells, E:T 10:1 values.
readout.type: EC50 (M), T cell mediated MOLM-13 cell killing, cynomolgus primary T cells, E:T 10:1

binder	value.reported
T017000630 (bispecific antibody, also called A0110056A10(E1D)-35GS-T0170056G05(L11V, G26W, L34Y, M77T, K83R, V89L, F91Y, F95L, R97K, Y99W)-A) DVQLVESGGGLVQAGGSLRLSCAASGITSKINDMGWYRQTPGNYREWVASITATGTTNYRDSVKGRFTISRDNAKSTVYLQMNSLKPEDTTVYYCNTFPPISNFWGQGTLVTVSSGGGGSGGGGSGGGGSGGGGSGGGGSGGGGSGGGGSEVQLVESGGGVVQPGGSLRLSCVASWDVHKINFYGWYRQAPGKEREKVAHISIGDQTDYADSAKGRFTISRDESKNTVYLQMNSLRPEDTALYYCRALSKIWPYDYWGQGTLVTVSSA	4.5e-10
T017000639 (bispecific antibody) DVQLVESGGGVVQPGGSLRLSCVASWDVHKINFYTWYRQAPGKEREKVAHISIGDQTDYADSAKGRFTISRDESKNTVYLQMNSLRPEDTALYYCRALSRIWPYDYWGQGTLVTVSSGGGGSGGGGSGGGGSGGGGSGGGGSGGGGSGGGGSEVQLVESGGGLVQAGGSLRLSCAASGITSKINDMGWYRQTPGNYREWVASITATGTTNYRDSVKGRFTISRDNAKSTVYLQMNSLKPEDTTVYYCNTFPPISNFWGQGTLVTVSSA	4.1e-11
T017000634 (bispecific antibody, also called A0110056A10(E1D)-35GS-T0170056G05(L11V, D27Y, L34Y, M77T, K83R, V89L, F91Y, F95L, Y99W)-A) DVQLVESGGGLVQAGGSLRLSCAASGITSKINDMGWYRQTPGNYREWVASITATGTTNYRDSVKGRFTISRDNAKSTVYLQMNSLKPEDTTVYYCNTFPPISNFWGQGTLVTVSSGGGGSGGGGSGGGGSGGGGSGGGGSGGGGSGGGGSEVQLVESGGGVVQPGGSLRLSCVASGYVHKINFYGWYRQAPGKEREKVAHISIGDQTDYADSAKGRFTISRDESKNTVYLQMNSLRPEDTALYYCRALSRIWPYDYWGQGTLVTVSSA	1.2e-10
T017000643 (bispecific antibody, also called A0110056A10(E1D)-35GS-T0170056G05(L11V, G26W, L34Y, G35T, M77T, K83R, V89L, F91Y, F95L, R97K, Y99W)-A) DVQLVESGGGLVQAGGSLRLSCAASGITSKINDMGWYRQTPGNYREWVASITATGTTNYRDSVKGRFTISRDNAKSTVYLQMNSLKPEDTTVYYCNTFPPISNFWGQGTLVTVSSGGGGSGGGGSGGGGSGGGGSGGGGSGGGGSGGGGSEVQLVESGGGVVQPGGSLRLSCVASWDVHKINFYTWYRQAPGKEREKVAHISIGDQTDYADSAKGRFTISRDESKNTVYLQMNSLRPEDTALYYCRALSKIWPYDYWGQGTLVTVSSA	1.6e-10
T017000631 (bispecific antibody, also called A0110056A10(E1D)-35GS-T0170056G05(L11V, G26Y, L34Y, M77T, K83R, V89L, F91Y, F95L, R97K, Y99W)-A) DVQLVESGGGLVQAGGSLRLSCAASGITSKINDMGWYRQTPGNYREWVASITATGTTNYRDSVKGRFTISRDNAKSTVYLQMNSLKPEDTTVYYCNTFPPISNFWGQGTLVTVSSGGGGSGGGGSGGGGSGGGGSGGGGSGGGGSGGGGSEVQLVESGGGVVQPGGSLRLSCVASYDVHKINFYGWYRQAPGKEREKVAHISIGDQTDYADSAKGRFTISRDESKNTVYLQMNSLRPEDTALYYCRALSKIWPYDYWGQGTLVTVSSA	2e-10
T017000131 (bispecific antibody, also called A0110056A10(E1D)-35GS-T0170056G05-A) DVQLVESGGGLVQAGGSLRLSCAASGITSKINDMGWYRQTPGNYREWVASITATGTTNYRDSVKGRFTISRDNAKSTVYLQMNSLKPEDTTVYYCNTFPPISNFWGQGTLVTVSSGGGGSGGGGSGGGGSGGGGSGGGGSGGGGSGGGGSEVQLVESGGGLVQPGGSLRLSCVASGDVHKINFLGWYRQAPGKEREKVAHISIGDQTDYADSAKGRFTISRDESKNMVYLQMNSLKPEDTAVYFCRAFSRIYPYDYWGQGTLVTVSSA	9e-10
T017000627 (bispecific antibody) DVQLVESGGGVVQPGGSLRLSCVASWDVHKINFYGWYRQAPGKEREKVAHISIGDQTDYADSAKGRFTISRDESKNTVYLQMNSLRPEDTALYYCRALSKIWPYDYWGQGTLVTVSSGGGGSGGGGSGGGGSGGGGSGGGGSGGGGSGGGGSEVQLVESGGGLVQAGGSLRLSCAASGITSKINDMGWYRQTPGNYREWVASITATGTTNYRDSVKGRFTISRDNAKSTVYLQMNSLKPEDTTVYYCNTFPPISNFWGQGTLVTVSSA	3.8e-11
T017000628 (bispecific antibody) DVQLVESGGGVVQPGGSLRLSCVASYDVHKINFYGWYRQAPGKEREKVAHISIGDQTDYADSAKGRFTISRDESKNTVYLQMNSLRPEDTALYYCRALSKIWPYDYWGQGTLVTVSSGGGGSGGGGSGGGGSGGGGSGGGGSGGGGSGGGGSEVQLVESGGGLVQAGGSLRLSCAASGITSKINDMGWYRQTPGNYREWVASITATGTTNYRDSVKGRFTISRDNAKSTVYLQMNSLKPEDTTVYYCNTFPPISNFWGQGTLVTVSSA	2e-11
T017000633 (bispecific antibody) DVQLVESGGGVVQPGGSLRLSCVASGYVHKINFYGWYRQAPGKEREKVAHISIGDQTDYADSAKGRFTISRDESKNTVYLQMNSLRPEDTALYYCRALSRIWPYDYWGQGTLVTVSSGGGGSGGGGSGGGGSGGGGSGGGGSGGGGSGGGGSEVQLVESGGGLVQAGGSLRLSCAASGITSKINDMGWYRQTPGNYREWVASITATGTTNYRDSVKGRFTISRDNAKSTVYLQMNSLKPEDTTVYYCNTFPPISNFWGQGTLVTVSSA	5.2e-11
T017000128 (bispecific antibody) DVQLVESGGGLVQPGGSLRLSCVASGDVHKINFLGWYRQAPGKEREKVAHISIGDQTDYADSAKGRFTISRDESKNMVYLQMNSLKPEDTAVYFCRAFSRIYPYDYWGQGTLVTVSSGGGGSGGGGSGGGGSGGGGSGGGGSGGGGSGGGGSEVQLVESGGGLVQAGGSLRLSCAASGITSKINDMGWYRQTPGNYREWVASITATGTTNYRDSVKGRFTISRDNAKSTVYLQMNSLKPEDTTVYYCNTFPPISNFWGQGTLVTVSSA	1.7e-10
